Reference for the values: paper PMC12040169

# METHOD_DESCRIPTION: in vitro
# STATED_CONDITIONS: human, hela cells, % viability
The following molecules are shown together with reported viability at 28.5 h, 10 µM values.
Quick reminder: number only, in %, skip the unit.

# input Which value of viability at 28.5 h, 10 µM has been reported for O=c1[nH]c2ncc(-c3cccc4cccnc34)nc2n1C1CCCCC1 in the records?
# output 96

###

# METHOD_DESCRIPTION: in vitro
# STATED_CONDITIONS: human, hela cells, % viability
MEASUREMENT_LABEL: viability at 28.5 h, 10 µM (%)
Kindly answer with a numeric value in %, unit omitted.

Before answering, review these 3 worked examples.
CN1CCCN(c2cncc(-c3cc4ccccc4o3)n2)CC1 | 93
Cc1ccc2c(c1)N(C(=O)COc1nc3ccccc3s1)C(C)(C)c1ssc(=S)c1-2 | 97.7
Nc1nonc1OCCCCOc1nonc1N | 110

# input viability at 28.5 h, 10 µM for COc1ccc(C2C(C(=O)Nc3ccccc3)=C(C)Nc3ncnn32)cc1 (centres unmarked) ?
# output 103

# input One more compound: O=S(=O)(Nc1cccc2cc[nH]c12)c1ccc(Br)cc1C(F)(F)F
# output 88.5

###

viability at 28.5 h, 10 µM: recorded values
# METHOD_DESCRIPTION: in vitro
# STATED_CONDITIONS: human, hela cells, % viability
# number only, unit % dropped from output

CCC(CC)n1nc(C(=O)NC2(C#N)CCSC2)cc1C (stereo not drawn) [CBK305111] | 103
CCNC(=O)c1cc2c(=O)n3ccccc3nc2n(C)c1=N [CBK287762] | 90.7
CCN1C(=O)CC(C(=O)O)S/C1=N\c1ccc(OC)cc1 (stereo not drawn) [CBK287266] | 105
Cn1ncc(N2CCN(C(=O)CCCOc3ccccc3)CC2)cc1=O [CBK306937] | 84.2
NC(=O)c1ccccc1NC(=O)Cc1ccc2c(c1)CCCC2 [CBK298334] | 88.9
COc1cc(NC(=O)c2cccnc2)c(Cl)cc1NC(=O)c1ccc(Cl)cc1 [CBK033522] | 98.2
Cc1cccc(OCC2CCCN(C(=O)NCCc3cnn(C)c3)C2)c1 (stereo not drawn) [CBK307358] | 96.9
Cc1ccc2c(c1)C(=O)NCC1(CCN(Cc3ccccc3)CC1)O2 [CBK285048] | 104

--- query ---
# input # lookup: viability at 28.5 h, 10 µM of O=C1c2ccccc2-c2onc3c(NCc4ccccc4)cc(Nc4ccccc4)c1c23 [CBK261979]
# output 84

###

# METHOD_DESCRIPTION: in vitro
# STATED_CONDITIONS: human, hela cells, % viability
MEASUREMENT_LABEL: viability at 28.5 h, 10 µM (%)
The answer is to be given in %; state only the numeric part.

O=C(C1=C(O)C(=O)N(CCCN2CCOCC2)C1c1ccccn1)c1ccc(Cl)cc1 (centres unmarked) [CBK266445] | 112
COc1ccccc1CN(C1CCNCC1)S(=O)(=O)c1c(Cl)cccc1Cl [CBK160807T] | 89.2
COC(=O)[C@@H]1CN(C(=O)c2cccs2)CCN1C(=O)c1cccnc1 [CBK289610] | 87
OCCN1CCN(c2nc(C3CCOC3)cn3ccnc23)CC1 (centres unmarked) [CBK037931] | 98.5

# input For N/C(=N\OCC(=O)Nc1ccc(-n2cnnn2)cc1)c1nonc1N [CBK265331] , what is its reported viability at 28.5 h, 10 µM?
# output 104

# input Next entry: Cc1cccn2c(=O)cc(CN3CCC(c4cn[nH]c4)CC3)nc12 [CBK305764]
# output 101

# input Now consider Cc1noc(CN2CCNC(=O)C2c2ccccc2C(F)(F)F)n1 (centres unmarked) [CBK306405] .
# output 98.2

# input Let us now turn to CCN(CC)C(=O)c1cccc(OC)c1 [CBK012105]
# output 101

# input Then Clc1ccc(Nc2nnc(-c3[nH]ncc3NCc3ccncc3)o2)cc1 [CBK288588] ?
# output 99

# input Okay, and CCc1nc2ccc(C(=O)N3CCN(C(=O)c4ccco4)CC3)cn2c1N(C)Cc1ccncc1 [CBK145635] ?
# output 94.5

# input What do you get for CC(C)(C)OC(=O)N1CCC2(CC1)NC(=O)c1cc(-c3cccnc3)ccc1O2 [CBK083517] ?
# output 94.1
